ASSAY_METHOD_TEXT: Stability at 60° C. in methanol-water, acetate buffer
Assay type: physicochemical
CONDITION_CONTEXT: methanol-water, acetate buffer
MEASURED_QUANTITY: half-life (h)
Answers are plain numbers, in h.

half-life measured on CCCC(=O)O [butyrate] = 22.3

---

ASSAY_METHOD_TEXT: Stability in soybean millrun feed premix at 60° C.
Assay type: physicochemical
CONDITION_CONTEXT: soybean millrun feed premix; 60° C., one week, soybean millrun premix, 10% (w/w)
Hi there, I'd appreciate the recorded remaining at 168 h for every entry that follows.
Give bare numbers, in %.

Record excerpt, results attached:
CCC(=O)OC(C(C)C(=O)O)C(C)C1OC2(CCC(C)(C3CCC(C)(C4OC(C5OC(O)(COC(=O)Nc6ccccc6)C(C)CC5C)CC4C)O3)O2)CC(O)C1C (stereo not drawn) [Laidlomycin phenylcarbamate, laidlomycin phenylcarbamate] | 100
CCC(=O)OCC1(O)OC(C2CC(C)C(C3(C)CCC(C4(C)CCC5(CC(O)C(C)C(C(C)C(OC(=O)CC)C(C)C(=O)O)O5)O4)O3)O2)C(C)CC1C (stereo not drawn) [Laidlomycin propionate, reference compound] | 59

remaining at 168 h measured on CCC(=O)OC(C(C)C(=O)O)C(C)C1OC2(CCC(C)(C3CCC(C)(C4OC(C5OC(O)(COC(=O)C(C)C)C(C)CC5C)CC4C)O3)O2)CC(O)C1C (stereo not drawn) [Laidlomycin isobutyrate, reference compound] = 70
